Sourced from paper PMC5519041

# Tested on: human T cells
# Protocol text: One-way mixed lymphocyte reaction, T cell proliferation and cytokines
# Format: cell-based
# Conditions: day 4, 3H-thymidine, read-out: Proliferation IC50
Readout label: IC50

Query block: I am curious: what IC50 value has been reported for CCCC(=O)O [Butyrate, butyrate] ?
Result block: 170 µM

---

List of pEC50 values.
# Test system: human GPR43 (Homo sapiens)
# Sequence (O15552 1-330): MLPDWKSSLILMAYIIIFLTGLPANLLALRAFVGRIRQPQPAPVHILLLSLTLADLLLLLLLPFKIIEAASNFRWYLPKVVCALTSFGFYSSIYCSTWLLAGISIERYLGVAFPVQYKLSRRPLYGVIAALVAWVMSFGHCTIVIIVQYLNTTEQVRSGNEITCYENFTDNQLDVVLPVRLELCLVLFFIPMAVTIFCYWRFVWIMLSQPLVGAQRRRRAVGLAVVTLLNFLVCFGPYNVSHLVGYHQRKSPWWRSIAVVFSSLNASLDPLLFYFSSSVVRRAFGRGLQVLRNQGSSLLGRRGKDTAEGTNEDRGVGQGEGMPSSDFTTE
# Protocol text: cAMP inhibition assay (HTRF), forskolin-induced cAMP in CHO cells stably expressing human GPR43
# Conditions: inhibition of forskolin-induced cAMP production
Note: pEC50 values are expressed as the negative base-10 logarithm of concentration in M.

Query block: Dear colleague, I am looking for the recorded pEC50 of the following compound: CCCC(=O)O [Butyrate, butyrate]
Result block: 2.97

Query block: Now consider CC(C)[C@H](C(=O)Nc1ncc(F)s1)c1ccc(Cl)cc1 and answer again.
Result block: 5.96

Query block: Subsequent entry: CC(C)(C)[C@H](C(=O)Nc1ncc(-c2ccccc2)s1)c1ccc(Cl)cc1
Result block: 5.74
